Biological target: tau (Homo sapiens)
Sequence (P10636 623-695 limits assumed): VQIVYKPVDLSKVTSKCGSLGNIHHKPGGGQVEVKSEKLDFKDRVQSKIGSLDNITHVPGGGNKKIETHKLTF
Test: MCE Phenols Library screening, tau biosensor cell seeding assay (AvZ)
Type: cell-based
Details: Z score, replicate 1
I'd appreciate it if you marked entries Met when Z repl 1 is lower than -0.4 and Not met when it is not.

query: Bench note: check whether C=CCc1ccc(O)c(-c2cc(CC=C)ccc2O)c1 [Magnolol] shows Z repl 1 below -0.4
result: Not met

query: Bench note: check whether COC(=O)c1c(C)cc(OC(=O)c2c(C)cc(O)c(C=O)c2O)c(C)c1O [Atranorin] shows Z repl 1 below -0.4
result: Not met

query: Bench note: check whether Cc1cc(=O)oc2cc(O)cc(O)c12 [5,7-Dihydroxy-4-methylcoumarin] shows Z repl 1 below -0.4
result: Not met

query: Bench note: check whether Cc1ccc(O)c(O)c1 [4-Methylcatechol] shows Z repl 1 below -0.4
result: Met

query: Bench note: check whether O=c1ccc2cc(O)ccc2o1 [6-Hydroxycoumarin] shows Z repl 1 below -0.4
result: Met

query: Bench note: check whether OC[C@H]1O[C@@H](Oc2cc(O)ccc2/C=C/c2cc(O)cc(O)c2)[C@H](O)[C@@H](O)[C@@H]1O [Oxyresveratrol 2-O-?-D-glucopyranoside] shows Z repl 1 below -0.4
result: Met

query: Bench note: check whether CC(=O)OC(C)(C)CC(=O)O[C@H](CC=C(C)C)C1=CC(=O)c2c(O)ccc(O)c2C1=O [Beta-Acetoxyisovalerylshikonin] shows Z repl 1 below -0.4
result: Not met

query: Bench note: check whether COc1cc(/C=C/C(=O)OCC[N+](C)(C)C)cc(OC)c1O [Sinapine] shows Z repl 1 below -0.4
result: Met

query: Bench note: check whether O=C(O)[C@H](O)Cc1ccc(O)c(O)c1 [Danshensu] shows Z repl 1 below -0.4
result: Not met

query: Bench note: check whether Cc1ccc(C(C)C)cc1O [Carvacrol] shows Z repl 1 below -0.4
result: Not met

query: Bench note: check whether COc1ccc(/C=C/C(=O)C(C)(C)C(=O)/C=C/c2ccc(OC)c(OC)c2)cc1OC [Tetramethylcurcumin] shows Z repl 1 below -0.4
result: Met

query: Bench note: check whether COc1cc(CNC(=O)CCCCCC(C)C)ccc1O [Nordihydrocapsaicin] shows Z repl 1 below -0.4
result: Not met

query: Bench note: check whether Oc1cc(O)c2c(c1)O[C@H](c1ccc(O)c(O)c1)[C@H](O)[C@H]2c1c(O)cc(O)c2c1O[C@H](c1ccc(O)c(O)c1)[C@H](O)[C@H]2c1c(O)cc(O)c2c1O[C@H](c1ccc(O)c(O)c1)[C@H](O)C2 [Procyanidin C1] shows Z repl 1 below -0.4
result: Not met

query: Bench note: check whether CC(C)=CCc1c2ccoc2c(O)c2oc(=O)ccc12 [Alloimperatorin] shows Z repl 1 below -0.4
result: Not met
